PROCEDURE DETAILS: folding stability dG unfold (combined trypsin and chymotrypsin); higher = more stable
Note: every record was labeled by where its folding stability dG unfold sits among one (below 0.7 kcal/mol), two (0.7 kcal/mol to below 2 kcal/mol), three (2 kcal/mol or more)

INSERT INTO assay_data (input_sequence, class_label) VALUES
  ('SAGGSAGGSEPVVIKVTVTNENGEKRTITLPEIEVEPGETIEEIAAALAAEPGVKEVKVEVVPSAGGSAGGS [r12_199_TrROS_Hall]', 'one'),
  ('SERLKLKITIKNANGETYEVEIEFDLETNELTIKVKPVPALPPVTEKRVVKKDGKLVEETRTVLLSEEDLSA [r9_587_TrROS_Hall]', 'two'),
  ('SKIKKIKRVEIFKKKEKGYVVKITVEIDGKEYEFTVPAGMSLEEALKELLKNKDVKIKSVEIKPVSKEELSA [r9_607_TrROS_Hall]', 'one'),
  ('SAGGSAGGSAGGMYITFDFEVPPNNPEVIEELKSKGIEYKKIEPKPDKVKVKVIIPEKLLSAGGSAGGSAGG [r7_41_JUSTAS]', 'one'),
  ('SAGGSASVEIIFDPNKPTVTIYVPGPVDPNEPITLTLPGGPSLTITEIEVEKIGKEYVVKAKVTKLSAGGSA [r15_838_JUSTAS]', 'two'),
  ('PKIEITRVEYHPNEGYYRVTVKLPGKDVSIYMGPENGMMQVYFPGNGREREFPFDSMDDAVDRAKELLKERS [r1_177_TrROS]', 'two'),
  ('SAGGSMETRETLEERTLPNGEKVLTTTTTYPDGTVTTRTTVIHGGTSTVTTTTTPAAPVPGPAPARASAGGS [r16_523_JUSTAS]', 'two'),
  ('SAGGSAGGSAMKVSTTPVTLPNGESATLETLPDGTKVLKVGDKYIVVYPSGEVKEVPLEELLSAGGSAGGSA [r18_379_JUSTAS]', 'two'),
  ('SAGGSAGGSKKKVKVVKVEKPEGDYYVVTVYYEDGKLLKKVVFPKGVKPEEVLEKVKKLVEEESAGGSAGGS [r12_798_TrMRF]', 'three'),
  ('SAGGSAGGSAGKTIVLKTPEAIKNLKEGDVIKLKDGKKYKIVKVEYDKETNYFTIEIEKESAGGSAGGSAGG [r11_316_TrROS_Hall]', 'three'),
  ('SAGGSAGGSLTIRFPEELSPEEAVELAEGLVRELFPEDVPVTVTVVFYDPETGEELTIPAELASAGGSAGGS [r12_1051_TrMRF]', 'two'),
  ('SAGMIATITITRPGTGSITLTVPVPVPSEEEARAYAEAVREALRAADPGPLEVSVEFERVPPVPPERLGSAG [r5_87_JUSTAS]', 'two'),
  ('SAGMTHVLPVPELSPEEVRALAEALPEGEELVLLVPGPELLAELRAAGFPVDPARFRLATPEERAELLASAG [r5_354_JUSTAS]', 'one'),
  ('SAGGSAGGSAGIEIELNGKPVTIHPNPDGYYRVRFPGPGKSILIPGMPPDDIKDFAKELLSAGGSAGGSAGG [r11_1085_TrROS]', 'one'),
  ('SAGGLENLENFELVETLTVKLPNGDKPVTLTLYRHPDGPAENVTSYEGKKYVFVVTDDSIEFFEGGTSAGGS [r16_711_TrMRF]', 'two'),
  ('SAGGGADVISAYDPETVEELSKLPWVTSVTYDPETGRYDIRFERPDGQYNYVVDNVTKEVLEVSPVDSAGGS [r8_251_TrMRF]', 'two'),
  ('SWQIKEVFPLPNGMRIKVYIHPDGYVQVSIRMYRPNPNDGKPQRQRFSITVPLPPGKPPSIDDILDYILNSA [r9_614_TrROS]', 'three'),
  ('SAGGSAGGSAMKLTKEYVFTKTITLKNGKTKTESEVLTEEVPPIPLEELIKRLGLPPEELISAGGSAGGSAG [r3_338_JUSTAS]', 'one'),
  ('SAGGSALAEKAKELALEKGYDPVKVTYDPKTGTLTMTAKPPGGKEVKMTFTIDEDTITITTTPLTKSAGGSA [r15_561_JUSTAS]', 'three'),
  ('SAPEVEVFPGKDNSALVRVVFEFDGYRIEVVRRVPVEALKAGIPLEELPDVEILEVRVVKLPKPRPDELSAG [r14_856_TrMRF]', 'three'),
  ('SAGGSAGGPNWVKFPIMFEMPIPVVPKMEKDPDGENRMEPVKPVRISIMIELTLPPDDLEDLIKSAGGSAGG [r6_120_TrROS]', 'two'),
  ('SAGGSAGGSAGEIVIDVEPNMTVEEVKKRIKALAEELKKEKGLEIKKIEIKEGMSVEELLSAGGSAGGSAGG [r17_43_TrROS_Hall]', 'one'),
  ('SMKTITIPADTLSPEEIEALLKELGFDPEKIKISTEGDKLVVTVPDMIVFLTPPPPVPTVPPTNPERLAALS [r1_57_JUSTAS]', 'one'),
  ('SAGGSAGGSPIEEIVAELKVPPGTTVKFPDGSTITLNSREDLLKLAKEGYPPEKLKDITVEAVSAGGSAGGS [r12_430_JUSTAS]', 'two'),
  ('SKIKILIAMTEDEIKKLAEELKKKGYEIKIKVKKIEKKKVKVKNKDGKTYEKEVVLVEVEIEIVPKGVKPSA [r9_991_TrROS_Hall]', 'three'),
  ('SALTLEELEKRYPELPSELLEKIKEEAEKVPKDRTLTFLLTAPDGRRVRITVTKPDTVTVTVLPPGVPEASA [r9_1024_JUSTAS]', 'three');
